T/C overview
# System: CD2F1 mice, L1210 leukemia ip, survival T/C
# experiment.summary: NCI In Vivo Anticancer Drug Screen. Data for tumor model L1210 Leukemia (intraperitoneal) in CD2F1 (CDF1) mice
# experimental.parameters: endpoint: mean survival time; dose: 400.0 mg/kg/injection; schedule: Q04DX003 (ip); vehicle: saline with Tween-80; higher = longer survival
Inconclusive results and toxic doses are left out.

| compound | target.desc | T/C |
| --- | --- | --- |
| CC(Br)C1(c2ccccc2)OCCO1 (configuration not stated) | CD2F1 mice, L1210 leukemia ip, survival T/C | 101 % of control |
| CCOC(=O)c1ccc(NC(=O)N(CC)c2ccccc2)cc1 | CD2F1 mice, L1210 leukemia ip, survival T/C | 95 % of control |
| [N-]=[N+]=CC(=O)NCC(=O)N/N=C/c1ccccn1 | CD2F1 mice, L1210 leukemia ip, survival T/C | 94 % of control |
| O=c1[nH]c(-c2ccccc2)nc(-c2ccccc2)c1CCO | CD2F1 mice, L1210 leukemia ip, survival T/C | 106 % of control |
| OCCCc1nc2ccccc2[nH]1 | CD2F1 mice, L1210 leukemia ip, survival T/C | 98 % of control |
| COc1cc(CO)ccc1OCc1ccccc1 | CD2F1 mice, L1210 leukemia ip, survival T/C | 105 % of control |
| CC(=O)Oc1ccc(C2NNC3(O)C(=O)N(C4CCCCC4)CC23)cc1 (configuration not stated) | CD2F1 mice, L1210 leukemia ip, survival T/C | 98 % of control |
| O=C(/C=C/c1ccc(Cl)cc1)c1ccc(Cl)cc1 | CD2F1 mice, L1210 leukemia ip, survival T/C | 93 % of control |
| CCOC(=O)Cn1cnc2cc(C)c(C)cc21 | CD2F1 mice, L1210 leukemia ip, survival T/C | 96 % of control |
| Brc1ccc([I+]c2ccc(Br)cc2)cc1 | CD2F1 mice, L1210 leukemia ip, survival T/C | 94 % of control |
| O=S(=O)(O)SCCN1CCOCC1 | CD2F1 mice, L1210 leukemia ip, survival T/C | 100 % of control |
| O=c1cn[nH]c2c(Br)cc(Br)cc12 | CD2F1 mice, L1210 leukemia ip, survival T/C | 97 % of control |
| CC1=NNC(=O)C1NNc1ccccc1 (configuration not stated) | CD2F1 mice, L1210 leukemia ip, survival T/C | 96 % of control |
| CC(N)(CCO)C(=O)O (configuration not stated) | CD2F1 mice, L1210 leukemia ip, survival T/C | 98 % of control |
| O=C1c2ccccc2C(=O)c2c(O)ccc(O)c21 | CD2F1 mice, L1210 leukemia ip, survival T/C | 103 % of control |
| OC(C/C(=N\Nc1ccccc1)c1ccc(F)cc1)(C(F)(F)F)C(F)(F)F | CD2F1 mice, L1210 leukemia ip, survival T/C | 96 % of control |
| CCCCc1ccc(N/C(N)=N/c2nc(C)cc(=O)[nH]2)cc1 | CD2F1 mice, L1210 leukemia ip, survival T/C | 92 % of control |
| CSc1ncc(Br)c(C(=O)O)n1 | CD2F1 mice, L1210 leukemia ip, survival T/C | 93 % of control |
| O=C(O)CCC1C2C=CC(C2)C1C(=O)O (configuration not stated) | CD2F1 mice, L1210 leukemia ip, survival T/C | 98 % of control |
| COC(CO)(OC)c1ccccc1 | CD2F1 mice, L1210 leukemia ip, survival T/C | 93 % of control |
| N#C/C(=C\c1ccc(-c2ccccc2)cc1)c1ccccc1 | CD2F1 mice, L1210 leukemia ip, survival T/C | 95 % of control |
| O=C1c2ccccc2S(=O)(=O)N1CC(O)COc1ccc(Cl)cc1 (configuration not stated) | CD2F1 mice, L1210 leukemia ip, survival T/C | 93 % of control |
| CCCOc1ccc(/C=N\N=C\c2ccc(OCCC)cc2)cc1 | CD2F1 mice, L1210 leukemia ip, survival T/C | 91 % of control |
| COc1cc(/C=C/c2ccc3ccccc3n2)cc(OC)c1OC | CD2F1 mice, L1210 leukemia ip, survival T/C | 98 % of control |
| c1ccc2c(c1)c1ccccc1c1nc3c(nc21)CCCC3 | CD2F1 mice, L1210 leukemia ip, survival T/C | 96 % of control |
| O=CNc1ccc(C(=O)O)cc1 | CD2F1 mice, L1210 leukemia ip, survival T/C | 100 % of control |
| c1ccc2c(c1)Nc1ccncc1S2 | CD2F1 mice, L1210 leukemia ip, survival T/C | 112 % of control |
